tested on: melanoma cell line A375; assay: In vitro dose response study, A375 proliferation; type: cell-based, human; conditions: Homo sapiens, A-375; A375, 96h, graded concentration, cell concentration
# IC50 annotations
Observed property: IC50 (µM)

Molecule | Target under test | Observed property | Measured number
COc1ccc(Nc2ccnc3cc(Cl)ccc23)cc1 [Compound 5] | melanoma cell line A375 | IC50 | 1.33
COc1ccc(Nc2ccnc3cc(Cl)ccc23)cc1OC [Compound 38] | melanoma cell line A375 | IC50 | 0.56
